Test system: Aβ production in SK-N-BE(2) neuroblastoma cells
Assay: Test Example 3: Aβ production inhibition in cell (Aβ40 ELISA, SK-N-BE(2))
Assay Setup: Homo sapiens, SKNBE2, 6 h, read-out: Test Example 3 IC50, SK-N-BE(2) cells, 6 hours, Aβ40 ELISA normalized by viability
Please provide measured pIC50 for the entries that follow.
Answers are plain numbers, as −log10 of the molar value.

Known pIC50 results, listed for orientation:
[
  {
    "Compound": "NC1=NC2(CO1)c1cc(-c3cncc(OCC(F)F)c3)ccc1OCC21CC1 (stereo not drawn) [RP 59]",
    "pIC50": 7.12
  },
  {
    "Compound": "NC1=NC2(CO1)c1cc(-c3cc(F)ccc3F)ccc1OC1(CCC1)C21COC1 (stereo not drawn) [RP 130]",
    "pIC50": 5.77
  },
  {
    "Compound": "NC1=NC2(CO1)c1cc(-c3cccnc3)ccc1OC1(CCC1)C21COC1 (stereo not drawn) [RP 209]",
    "pIC50": 6.08
  }
]

For each of the items listed, what is its pIC50?
1. NC1=NC2(CO1)c1cc(C3=CCCCC3)ccc1OC1(CCC1)C21COC1 (stereo not drawn) [RP 135]
2. CC(C)CC1Oc2ccc(-c3cncnc3)cc2C2(COC(N)=N2)C12COC2 (stereo not drawn) [RP 93]
3. CC1(C)Oc2ccc(-c3ccc4[nH]ccc4c3)cc2C2(COC(N)=N2)C12COC2 (stereo not drawn) [RP 174]
4. COc1cccc(-c2ccc3c(c2)C2(COC(N)=N2)C2(COC2)C2(CCC2)O3)c1 (stereo not drawn) [RP 126]
5. CCOc1cccc(-c2ccc3c(c2)C2(COC(N)=N2)C2(COC2)C(C)(C)O3)c1 (stereo not drawn) [RP 144]
6. CC1(C)Oc2ccc(-c3ccc4c(c3)OCO4)cc2C2(COC(N)=N2)C12COC2 (stereo not drawn) [RP 182]

**Result**
1. 5.74
2. 6.43
3. 5.47
4. 5.92
5. 6.34
6. 5.60

###

Tested on: Aβ production in SK-N-BE(2) neuroblastoma cells
Assay: Test Example 3: Aβ production inhibition in cell (Aβ40 ELISA, SK-N-BE(2))
Assay Setup: Homo sapiens, SKNBE2, 6 h, read-out: Test Example 3 IC50, SK-N-BE(2) cells, 6 hours, Aβ40 ELISA normalized by viability
Could you mark each record Met if its IC50 falls strictly under 0.4 µM, and Not met if it equals or exceeds it?

[
  {
    "Compound": "CC1(C)Oc2ccc(-c3cc(F)ccn3)cc2C2(COC(N)=N2)C12COC2 (stereo not shown) [RP 149]",
    "Target Or Test System": "Aβ production in SK-N-BE(2) neuroblastoma cells",
    "Label": "Not met"
  },
  {
    "Compound": "CC1(C)Oc2ccc(Br)cc2C2(CSC(N)=N2)C12COC2 (stereo not shown) [RP 42]",
    "Target Or Test System": "Aβ production in SK-N-BE(2) neuroblastoma cells",
    "Label": "Not met"
  },
  {
    "Compound": "NC1=NC2(CO1)c1cc(Nc3ncccc3Cl)ccc1OCC21COC1 (stereo not shown) [RP 43]",
    "Target Or Test System": "Aβ production in SK-N-BE(2) neuroblastoma cells",
    "Label": "Not met"
  },
  {
    "Compound": "NC1=NC2(COC1)c1cc(-c3cncnc3)ccc1OCC21CC1 (stereo not shown) [RP 215]",
    "Target Or Test System": "Aβ production in SK-N-BE(2) neuroblastoma cells",
    "Label": "Met"
  },
  {
    "Compound": "CC1(C)Oc2ccc(-c3cncnc3)cc2C2(COC(N)=N2)C12COC2 (single isomer, unassigned) [RP 51b]",
    "Target Or Test System": "Aβ production in SK-N-BE(2) neuroblastoma cells",
    "Label": "Met"
  }
]

**Query** Please check: IC50 for CC1(C)Oc2ccc(-c3cccc4cnccc34)cc2C2(COC(N)=N2)C12COC2 (stereo not shown) [RP 180] , strictly under 0.4 µM or not?
**Result** Not met

**Query** Same thing, different compound: NC1=NC2(CO1)c1cc(-c3cccc(F)c3F)ccc1OC1(CCC1)C21COC1 (stereo not shown) [RP 138]
**Result** Not met

**Query** And the next one, NC1=NC2(CO1)c1cc(-c3cncnc3)ccc1OC(CC1CC1)C21COC1 (stereo not shown) [RP 204] ?
**Result** Met

**Query** Input CC1(C)Oc2ccc(-c3cc(F)cc(F)c3)cc2C2(COC(N)=N2)C12COC2 (stereo not shown) [RP 147]
**Result** Met

**Query** Then what about the compound CC1(C)Oc2ccc(NC(=O)c3ccc(F)cn3)cc2[C@@]2(COC(N)=N2)C12CC2 [Example 222] ?
**Result** Met

**Query** How about this compound: Cc1cnc(Cl)c(-c2ccc3c(c2)C2(COC(N)=N2)C2(COC2)C(C)(C)O3)c1 (stereo not shown) [RP 151]
**Result** Met

**Query** Check NC1=NC2(CO1)c1cc(Br)ccc1OC(CC1CC1)C21COC1 (stereo not shown) [RP 16b] too.
**Result** Not met

**Query** Follow-up entry: NC1=NC2(CO1)c1cc(-c3cncnc3)c(F)cc1OCC21CC1 (stereo not shown) [RP 102]
**Result** Met

**Query** Then this compound: CC1(C)Oc2ccc(-c3cccc4cccnc34)cc2C2(COC(N)=N2)C12COC2 (stereo not shown) [RP 179]
**Result** Not met

**Query** # iterate: N#Cc1ccc(C(=O)Nc2ccc3c(c2)C2(COC(N)=N2)C2(CC2)CO3)nc1 (stereo not shown) [RP 196]
**Result** Met

**Query** Here is the next compound: CC#Cc1cncc(-c2ccc3c(c2)C2(CSC(N)=N2)C2(COC2)CO3)c1 (stereo not shown) [RP 68]
**Result** Not met
